Recorded values, source ChEMBL document CHEMBL5108015.

- test-target: Tryptophan 2,3-dioxygenase (Homo sapiens, UniProt P48775)
- protocol: Inhibition of N-terminal hexa-histidine tagged human TDO (19 to 388 residues) expressed in Escherichia coli Transetta (DE3) using L-tryptophan as substrate at 10 uM preincubated with enzyme for 10 mins followed by substrate addition and measured after 30 to 60 mins by microplate reader analysis relative to control
- conditions: time 40-70 min
- Sequence (P48775 whole entry, looked up, the tested form may be a part): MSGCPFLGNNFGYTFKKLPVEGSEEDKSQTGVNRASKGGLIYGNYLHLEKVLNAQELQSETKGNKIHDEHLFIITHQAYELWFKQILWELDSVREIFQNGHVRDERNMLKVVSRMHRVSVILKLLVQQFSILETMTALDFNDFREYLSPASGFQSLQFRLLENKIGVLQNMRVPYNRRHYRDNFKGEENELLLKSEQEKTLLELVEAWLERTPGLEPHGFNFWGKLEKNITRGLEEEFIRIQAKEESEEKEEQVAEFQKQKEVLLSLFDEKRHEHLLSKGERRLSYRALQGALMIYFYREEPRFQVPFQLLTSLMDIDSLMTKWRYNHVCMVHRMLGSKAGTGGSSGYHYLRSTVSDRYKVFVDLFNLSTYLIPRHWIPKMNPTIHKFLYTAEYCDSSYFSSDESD
Quick rule for you: inhibition at 40% or higher means yes, lower means no.

Check out these entries, answers already filled in.
{"entry-smiles": "O=C1NC(=O)c2c(NCc3ccccc3[N+](=O)[O-])cccc21", "class-label": "no"}
{"entry-smiles": "Oc1ccc(CNc2cc(C(F)(F)F)cc3[nH]ncc23)cc1", "class-label": "yes"}
{"entry-smiles": "O=[N+]([O-])c1cc(Cl)ccc1CNc1cc(C(F)(F)F)cc2[nH]ncc12", "class-label": "yes"}

We next turn to a different molecule, shown below.
### Prompt # bool: inhibition of FC(F)(F)c1cc(NC[C@H]2CCCCN2)c2cn[nH]c2c1 >= 40%
### Response yes

====

- test-target: Tryptophan 2,3-dioxygenase (Homo sapiens)
- protocol: Inhibition of N-terminal hexa-histidine tagged human TDO (19 to 388 residues) expressed in Escherichia coli Transetta (DE3) using L-tryptophan as substrate at 10 uM preincubated with enzyme for 10 mins followed by substrate addition and measured after 30 to 60 mins by microplate reader analysis relative to control
- conditions: time 40-70 min
Quick rule for you: inhibition at 70% or higher means yes, lower means no.

Check out these entries, answers already filled in.
{"entry-smiles": "FC(F)(F)c1cc(NC[C@@H]2CCCCN2)c2cn[nH]c2c1", "class-label": "no"}
{"entry-smiles": "Cc1ccc(CNc2cc(C(F)(F)F)cc3[nH]ncc23)c([N+](=O)O)c1", "class-label": "yes"}
{"entry-smiles": "O=[N+]([O-])c1ccccc1CNc1cccc2[nH]ncc12", "class-label": "no"}
{"entry-smiles": "O=[N+]([O-])c1cccc(CNc2cc(C(F)(F)F)cc3[nH]ncc23)c1", "class-label": "no"}
{"entry-smiles": "O=[N+]([O-])c1ccc(CNc2cc(C(F)(F)F)cc3[nH]ncc23)cc1", "class-label": "no"}
{"entry-smiles": "O=[N+]([O-])c1ccccc1CNc1cc(Br)cc2cn[nH]c12", "class-label": "no"}
{"entry-smiles": "O=[N+]([O-])c1cc(OCc2ccccc2)ccc1CNc1cc(C(F)(F)F)cc2[nH]ncc12", "class-label": "no"}
{"entry-smiles": "COc1cc(CNc2cc(Br)cc3[nH]ncc23)c([N+](=O)[O-])cc1OC", "class-label": "yes"}
{"entry-smiles": "N#Cc1cc(NCc2ccccc2[N+](=O)[O-])c2cn[nH]c2c1", "class-label": "no"}

We next turn to a different compound, shown below.
### Prompt # bool: inhibition of O=[N+]([O-])c1cc(Br)c(F)cc1CNc1cc(C(F)(F)F)cc2[nH]ncc12 >= 70%
### Response yes

====

- test-target: Tryptophan 2,3-dioxygenase (Homo sapiens)
- protocol: Inhibition of N-terminal hexa-histidine tagged human TDO (19 to 388 residues) expressed in Escherichia coli Transetta (DE3) using L-tryptophan as substrate at 100 uM preincubated with enzyme for 10 mins followed by substrate addition and measured after 30 to 60 mins by microplate reader analysis relative to control
- conditions: time 40-70 min
Exercise: for every item that follows, state its recorded inhibition.
Answers are plain numbers, in %.

Sample records with inhibition:
{"entry-smiles": "O=[N+]([O-])c1cc(Br)c(F)cc1CNc1cc(C(F)(F)F)cc2[nH]ncc12", "readout-units": "%", "measured": 88}
{"entry-smiles": "FC(F)(F)c1cc(NC[C@@H]2CCCCN2)c2cn[nH]c2c1", "readout-units": "%", "measured": 88}
{"entry-smiles": "O=[N+]([O-])c1ccc(Cl)cc1CNc1cc(C(F)(F)F)cc2[nH]ncc12", "readout-units": "%", "measured": 88}

Respectfully, I request inhibition for each entry included below.
1. Cc1ccc(CNc2cc(C(F)(F)F)cc3[nH]ncc23)c([N+](=O)O)c1
2. CNC(=O)c1cccc(CNc2cc(C(F)(F)F)cc3[nH]ncc23)c1
3. Oc1ccc(CNc2cc(C(F)(F)F)cc3[nH]ncc23)cc1
4. FC(F)(F)c1cc(NC[C@H]2CCCCN2)c2cn[nH]c2c1

### Response
[92, 91, 91, 90]

====

Exercise: for every item that follows, state its recorded IC50.
- test-target: Tryptophan 2,3-dioxygenase (Homo sapiens, UniProt P48775)
- protocol: Inhibition of N-terminal hexa-histidine tagged human TDO (19 to 388 residues) expressed in Escherichia coli Transetta (DE3) using L-tryptophan as substrate preincubated with enzyme for 10 mins followed by substrate addition and measured after 30 to 60 mins by microplate reader analysis
- Sequence (P48775 whole entry, the tested form may be a part): as the sequence (P48775 whole entry, looked up, the tested form may be a part) above

Sample records with IC50:
{"entry-smiles": "O=C(O)CNc1cccc(CNc2cc(C(F)(F)F)cc3[nH]ncc23)c1", "measured": "> 100 µM"}
{"entry-smiles": "O=[N+]([O-])c1ccccc1CNc1cc(Br)cc2cn[nH]c12", "measured": "> 100 µM"}

Switching to the query record.
### Prompt Hello, please tell me recorded IC50 for this one: CC(C)n1ncc2c(NCc3ccccc3[N+](=O)[O-])cc(C(F)(F)F)cc21
### Response > 100 µM
